The measured values listed here are drawn from PubChem BioAssay AID2060497.

Please go through the items and note down their viability, T/C.
test system: 317291-083-R-J1-PDC complex spheroids, viability; assay: Anticancer human tumor 317291-083-R-J1-PDC patient-derived soft tissue sarcoma cell line growth inhibition [GQUAD]; details: second compound 10 µM; first compound 0.316 µM; stronger effect = lower value

>  <molecule>
Cc1[nH]c2ccccc2c1CCNCc1ccc(/C=C/C(=O)NO)cc1 + CN(C)c1ccc(Nc2c3ccc(NC(=O)CCN4CCCC4)cc3nc3cc(NC(=O)CCN4CCCC4)ccc23)cc1

>  <test target>
317291-083-R-J1-PDC complex spheroids, viability

>  <viability, T/C>
0.28%

$$$$
>  <molecule>
Nc1ccn(C2OC(CO)C(O)C2(F)F)c(=O)n1 (stereo not drawn) + CN(C)c1ccc(Nc2c3ccc(NC(=O)CCN4CCCC4)cc3nc3cc(NC(=O)CCN4CCCC4)ccc23)cc1

>  <test target>
317291-083-R-J1-PDC complex spheroids, viability

>  <viability, T/C>
1.83%

$$$$

Consider now this further molecule.
The recorded viability, T/C for entry COc1ncnc(C2CC2)c1-c1ncc2cnn(Cc3ccc(-c4nc(C(F)(F)F)cn4C(C)C)cc3)c2n1 + CN(C)c1ccc(Nc2c3ccc(NC(=O)CCN4CCCC4)cc3nc3cc(NC(=O)CCN4CCCC4)ccc23)cc1 equals 0.23%

---

system: 317291-083-R-J1-PDC complex spheroids, viability; assay: Anticancer human tumor 317291-083-R-J1-PDC cell line growth inhibition [GQUAD]; settings: second compound 0.1 µM; first compound 0.0316 µM; stronger effect = lower value;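 also: spheroids exposed to compounds for one week before readout; percent viability relative to DMSO vehicle wells taken as 100%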
Please go through the items and note down their viability, T/C.
One number for each entry, in %.

Sample records with viability, T/C:
>  <compound>
Cn1ncnc1[C@H]1c2n[nH]c(=O)c3cc(F)cc(c23)N[C@@H]1c1ccc(F)cc1 + CN(C)c1ccc(Nc2c3ccc(NC(=O)CCN4CCCC4)cc3nc3cc(NC(=O)CCN4CCCC4)ccc23)cc1

>  <viability, T/C, %>
87.6

$$$$
>  <compound>
CC(C)(O)C1CCC(Nc2ccc3ncc(-c4cccc(C(F)(F)F)c4)n3n2)CC1 (stereo unspecified) + CN(C)c1ccc(Nc2c3ccc(NC(=O)CCN4CCCC4)cc3nc3cc(NC(=O)CCN4CCCC4)ccc23)cc1

>  <viability, T/C, %>
97.5

$$$$
>  <compound>
O=c1[nH]cc(F)c(=O)[nH]1 + Cc1[nH]c2ccc(F)cc2c1-c1nc2c3cccnc3c3ncccc3c2[nH]1

>  <viability, T/C, %>
110

$$$$
>  <compound>
CCc1c2c(nc3ccc(O)cc13)-c1cc3c(c(=O)n1C2)COC(=O)[C@]3(O)CC + CN(C)c1ccc(Nc2c3ccc(NC(=O)CCN4CCCC4)cc3nc3cc(NC(=O)CCN4CCCC4)ccc23)cc1

>  <viability, T/C, %>
10.9

$$$$
>  <compound>
C#Cc1c(F)ccc2cc(O)cc(-c3ncc4c(N5CC6CCC(C5)N6)nc(OCC56CCCN5CC(F)C6)nc4c3F)c12 (stereo unspecified) + CN(C)c1ccc(Nc2c3ccc(NC(=O)CCN4CCCC4)cc3nc3cc(NC(=O)CCN4CCCC4)ccc23)cc1

>  <viability, T/C, %>
91.3

$$$$

Consider now this further compound.
The recorded viability, T/C for entry CCc1c2c(nc3ccc(O)cc13)-c1cc3c(c(=O)n1C2)COC(=O)[C@]3(O)CC + Cc1[nH]c2ccc(F)cc2c1-c1nc2c3cccnc3c3ncccc3c2[nH]1 equals 10
